testDescription: qHTS assay to identify small molecule agonists of H2AX - cell viability counter screen (AID 1224847);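 further: wild-type CHO-K1 cells; top concentration of the series differs between compounds; nearly all actives have a fitted effect of over 30% in size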
protocolConditions: CHO-K1 viability, CellTiter-Glo luminescence, 3 h; series mostly up to 154 µM
Inconclusive results are not listed. Calls of active or inactive are those of the source. The call rests on the fitted dose curve.
quantityMeasured: outcome

Solved entries:
CNS(=O)(=O)c1cc(C(=O)N2CCC(CCN3C4CCC3CC(n3c(C)nc5ccccc53)C4)(c3cccc(F)c3)CC2)c(Cl)cc1F (stereo unspecified)
inactive
CC(C)(O)CCc1ccccc1
inactive
CC(C)N=C=NC(C)C
inactive
COC(C)(C)OC
inactive

Report outcome for CC(C)Cc1ccc(CC(=O)O)cc1 inactive

Report outcome for CCN(CC)CCOC(=O)C(c1ccccc1)c1ccccc1 inactive

Report outcome for CC(CO)(CO)C(=O)O inactive

---

testDescription: A CellTox Green Cytotoxicity Assay to monitor cytotoxicity in HepG2 cells - 16 hour (AID 1224876); further: nearly all actives have a fitted effect of over 45% in size
protocolConditions: CellTox Green fluorescence; series mostly up to 76.8 µM
Inconclusive results are not listed. Activity calls are given as the source filed them. Calls follow the shape of the dose curve; as a rule, active = well fitted activation curve with a large enough effect in the repeat runs; inconclusive = weak or mixed curves; inactive = flat fitted curve, though single readings scatter.
Give your call using only these classes: active, inactive

Some entries whose results are on file:
Cc1cc(CCC(=O)OCCOCCOCCOC(=O)CCc2cc(C)c(O)c(C(C)(C)C)c2)cc(C(C)(C)C)c1O
inactive
CCOC(=O)Oc1ccc(CCNC(=O)[C@H](CCSC)NC(C)=O)cc1OC(=O)OCC
inactive
O[C@@H](CNC[C@H](O)[C@H]1CCc2cc(F)ccc2O1)[C@@H]1CCc2cc(F)ccc2O1
active
O=C(CCS)OCC(COC(=O)CCS)(COC(=O)CCS)COC(=O)CCS
inactive
CCC1CCC(CCC(=O)O)C1 (stereo not given)
inactive
CCC(CO)(CO)CO
inactive
CC/C=C\C/C=C\C/C=C\CCCCCCCC(=O)OCC
inactive
CCCCCCCC/C=C\CCCCCCCC(=O)OCCO
inactive

Recorded test outcome, item CC(C)N=C=NC(C)C inactive

Recorded test outcome, item CCCOC(=O)c1c(Cl)c(Cl)c(Cl)c(Cl)c1C(=O)OCCC inactive

Recorded test outcome, item COc1ccc2nc(S(=O)Cc3ncc(C)c(OC)c3C)[nH]c2c1 (stereo not given) inactive

Recorded test outcome, item CCN(CC)CCOC(=O)C(c1ccccc1)c1ccccc1 inactive

Recorded test outcome, item Cc1ccc2nc(N)[nH]c(=O)c2c1Sc1ccncc1 inactive

Recorded test outcome, item Cc1ccccc1S(N)(=O)=O inactive

Recorded test outcome, item COc1ccc(C2C(=O)c3ccccc3C2=O)cc1 inactive

---

testDescription: qHTS RealTime-Glo MT Cell Viability Assay in HEK293 cells - 8 hour (AID 1224887); further: top concentration of the series differs between compounds; nearly all actives have a fitted effect of over 50% in size
protocolConditions: RealTime-Glo luminescence; series mostly up to 76.8 µM
Results filed as inconclusive are left out. Active and inactive are the calls of the source. Calls follow the shape of the dose curve; as a rule, active = well fitted cell-killing curve with a large enough effect in the repeat runs; inconclusive = weak or mixed curves, or effect the other way; inactive = flat fitted curve, though single readings scatter.
quantityMeasured: outcome

Solved entries:
CCC(CO)(CO)CO
inactive
Cc1cc([N+](=O)[O-])ccc1N
inactive
CCNc1nc(N)nc(Cl)n1
inactive
COC(=O)c1sccc1S(N)(=O)=O
inactive
N[C@@H](Cc1cc(I)c(O)c(I)c1)C(=O)O
inactive

Let's switch to this molecule now.
Report outcome for CC1=CC[C@@]23C[C@@H]1C(C)(C)[C@@H]2CC[C@H]3C inactive

---

testDescription: A CellTox Green Cytotoxicity Assay to monitor cytotoxicity in HepG2 cells - 24 hour (AID 1224878); further: nearly all actives have a fitted effect of over 45% in size
protocolConditions: CellTox Green fluorescence; series mostly up to 76.8 µM
Inconclusive results are not listed. The source made the active and inactive calls. Calls follow the shape of the dose curve; as a rule, active = well fitted activation curve with a large enough effect in the repeat runs; inconclusive = weak or mixed curves; inactive = flat fitted curve, though single readings scatter.
Give your call using only these classes: active, inactive

Some entries whose results are on file:
CC(=O)OC(C)C[N+](C)(C)C (stereo not given)
inactive
COc1ccc(-c2cc(C(F)F)nn2-c2ccc(S(N)(=O)=O)cc2)cc1F
inactive
CCCCC[C@H](O)/C=C/[C@H]1[C@H](O)CC(=O)[C@@H]1C/C=C\CCCC(=O)O
inactive

Recorded test outcome, item CCCCCCCC/C=C/C(=O)O inactive

Recorded test outcome, item CCCOC(=O)c1c(Cl)c(Cl)c(Cl)c(Cl)c1C(=O)OCCC inactive

Recorded test outcome, item CCN(CC)CCOc1ccccc1C(=O)CCc1ccccc1 inactive

Data origin, for the record: PubChem BioAssay (Tox21)
